# TESTED ON: Ubiquitin carboxyl-terminal hydrolase 1 (Homo sapiens)
# ASSAY COMMENT: Inhibitors of USP1/UAF1: Primary Screen; note: nearly all actives have a fitted effect of over 60% in size
# DETAILS: recombinant USP1/UAF1, Ub-Rhodamine cleavage fluorescence; series mostly up to 57.1 µM
The campaign covered roughly 390,000 compounds. About 910 (0.23%) were called active. Inconclusive results (about 5%) are left out. The sample holds actives, similar compounds and a random draw of the others, so the mix is not that of the screen.
READOUT: outcome

Cc1c(NC(=O)Nc2ccc(F)c(Cl)c2)c(=O)n(-c2ccccc2)n1C :: inactive
CCc1nn(CC(=O)N2CCN(c3cccc(C(F)(F)F)c3)CC2)c(=O)c2cc3occc3n12 :: inactive
CCOc1ccccc1C(=O)NC1(C(F)(F)F)C(=O)Nc2c1c(=O)[nH]c(=O)n2-c1ccc(F)cc1 (stereo not drawn) :: inactive

// data source = PubChem BioAssay AID743255
